- Test system: RDEB dermal fibroblasts EB71
- assayComment: day of extracellular matrix detachment from plate (days); higher = delayed detachment (less fibrotic matrix)
- conditionContext: compound concentration: 10 uM
Counter-ions that a name gives are not always drawn. Whole data set: some 1,100 compounds, median “day of extracellular matrix detachment from plate” near 16, cut for the lowest 2% near 10. Many of the other results were omitted from the sample, so the lowest values are more common in it than they were.
observationType: day of extracellular matrix detachment from plate
Number, no unit, nothing else.

Entry C[C@@H](NCCCc1cccc(C(F)(F)F)c1)c1cccc2ccccc12 [Cinacalcet HCl] has what day of extracellular matrix detachment from plate?
12.3

# iterate: CC1(C)S[C@@H]2[C@H](NC(=O)Cc3ccccc3)C(=O)N2[C@H]1C(=O)O [Penicillin G Sodium]
13

# iterate: CC1(C)[C@H](C(=O)O)N2C(=O)C[C@H]2S1(=O)=O [Sulbactam]
10

# iterate: O=S(=O)(O)CCCS(=O)(=O)O [Eprodisate (disodium)]
18

# iterate: FC(F)(F)c1ccc(/C=C/c2nc(COc3ccc(CCCCn4ccnn4)cc3)co2)cc1
15.7

# iterate: CC1(C)[C@H](C(=O)O)N2C(=O)C[C@H]2S1(=O)=O [Sulbactam sodium]
11

# iterate: Clc1ccc(Nc2nnc(Cc3ccncc3)c3ccccc23)cc1 [Vatalanib (PTK787) 2HCl]
25

# iterate: CCC[S+]([O-])c1ccc2[nH]c(NC(=O)OC)nc2c1 (centres undefined) [Albendazole Oxide]
16

# iterate: Cc1cn([C@H]2O[C@@H](CO)[C@H](O)[C@H]2F)c(=O)[nH]c1=O
15.3
